experimentalSystem: GBA2 (nonlysosomal glucosylceramidase) (Homo sapiens)
Construct: human GBA2 stably expressed in HEK293T; 110 kDa on gel
Sequence (Q9HCG7 whole entry): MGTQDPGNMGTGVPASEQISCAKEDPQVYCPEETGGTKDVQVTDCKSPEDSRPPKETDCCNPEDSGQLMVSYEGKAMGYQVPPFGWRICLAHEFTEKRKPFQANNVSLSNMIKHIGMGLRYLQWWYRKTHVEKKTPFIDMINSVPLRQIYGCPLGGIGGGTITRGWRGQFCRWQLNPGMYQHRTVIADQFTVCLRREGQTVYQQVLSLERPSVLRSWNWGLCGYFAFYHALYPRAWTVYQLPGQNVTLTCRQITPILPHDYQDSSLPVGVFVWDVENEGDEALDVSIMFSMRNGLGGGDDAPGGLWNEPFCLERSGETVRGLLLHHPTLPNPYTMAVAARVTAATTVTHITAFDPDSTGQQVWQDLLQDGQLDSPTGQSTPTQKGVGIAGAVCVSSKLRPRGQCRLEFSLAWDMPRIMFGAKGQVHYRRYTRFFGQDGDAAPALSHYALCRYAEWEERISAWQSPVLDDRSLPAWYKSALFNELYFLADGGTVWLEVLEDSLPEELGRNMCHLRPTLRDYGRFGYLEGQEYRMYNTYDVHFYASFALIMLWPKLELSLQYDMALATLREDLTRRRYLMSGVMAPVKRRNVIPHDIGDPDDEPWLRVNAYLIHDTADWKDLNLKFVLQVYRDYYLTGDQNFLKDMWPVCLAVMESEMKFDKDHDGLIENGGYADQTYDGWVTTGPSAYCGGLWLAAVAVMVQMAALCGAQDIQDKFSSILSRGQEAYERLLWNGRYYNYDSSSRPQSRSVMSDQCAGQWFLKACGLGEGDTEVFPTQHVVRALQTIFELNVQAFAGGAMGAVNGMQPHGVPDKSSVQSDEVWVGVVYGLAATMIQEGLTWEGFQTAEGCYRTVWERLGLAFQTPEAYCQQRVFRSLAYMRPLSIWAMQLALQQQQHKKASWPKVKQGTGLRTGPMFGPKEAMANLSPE
experimentDescription: intact cells treated, residual activity in lysate with 4MU-glucoside
Type: cell-based
conditionSummary: read-out: CP / Enz. assay
quantityKind: pIC50
Lab note — pIC50 values are minus log10 of concentrations in M.

Query :: Fill in: pIC50 of OC[C@@H]1[C@@H](O)[C@H](O)[C@@H](O)[C@@H]2O[C@H]12 [compound 2, cyclophellitol] is ___
Result :: 6.70

----------
experimentalSystem: GBA (HEK293T cells) (Homo sapiens, UniProt P04062)
Construct: gene GBA1; endogenous lysosomal enzyme in HEK293T cells that stably express human GBA2; 58-66 kDa on gel
Sequence (P04062 40-536): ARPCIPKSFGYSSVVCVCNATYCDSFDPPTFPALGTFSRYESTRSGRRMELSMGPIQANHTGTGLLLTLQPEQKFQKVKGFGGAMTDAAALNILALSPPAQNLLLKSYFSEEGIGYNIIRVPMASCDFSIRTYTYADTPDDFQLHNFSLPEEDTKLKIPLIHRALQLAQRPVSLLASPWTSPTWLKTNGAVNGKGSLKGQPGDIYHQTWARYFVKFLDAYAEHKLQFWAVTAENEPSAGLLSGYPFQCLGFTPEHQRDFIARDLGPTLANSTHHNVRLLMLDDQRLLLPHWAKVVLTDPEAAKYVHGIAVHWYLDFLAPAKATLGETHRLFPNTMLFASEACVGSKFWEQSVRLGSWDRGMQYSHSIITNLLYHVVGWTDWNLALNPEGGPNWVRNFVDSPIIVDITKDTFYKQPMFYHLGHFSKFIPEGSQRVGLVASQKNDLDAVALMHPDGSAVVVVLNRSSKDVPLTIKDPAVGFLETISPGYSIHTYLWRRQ
experimentDescription: intact cells treated, residual activity in lysate with 4MU-glucoside
Type: cell-based
conditionSummary: covalent; 24 h treatment of intact HEK293T cells; assay pH 5.2 with 25 nM AMP-DNM to block GBA2; read-out: CP / Enz. assay
quantityKind: IC50 (nM)
Report the value in nM with no unit label.

Query :: Fill in: IC50 of OC[C@@H]1[C@@H](O)[C@H](O)[C@@H](O)[C@@H]2O[C@H]12 [compound 2, cyclophellitol] is ___
Result :: 86

----------
experimentalSystem: GAA (zebrafish larvae) (Danio rerio, UniProt A0A8M1QKP5)
Construct: endogenous enzyme in larvae, measured in larval lysate; paralogues not distinguished
Sequence (A0A8M1QKP5 31-918): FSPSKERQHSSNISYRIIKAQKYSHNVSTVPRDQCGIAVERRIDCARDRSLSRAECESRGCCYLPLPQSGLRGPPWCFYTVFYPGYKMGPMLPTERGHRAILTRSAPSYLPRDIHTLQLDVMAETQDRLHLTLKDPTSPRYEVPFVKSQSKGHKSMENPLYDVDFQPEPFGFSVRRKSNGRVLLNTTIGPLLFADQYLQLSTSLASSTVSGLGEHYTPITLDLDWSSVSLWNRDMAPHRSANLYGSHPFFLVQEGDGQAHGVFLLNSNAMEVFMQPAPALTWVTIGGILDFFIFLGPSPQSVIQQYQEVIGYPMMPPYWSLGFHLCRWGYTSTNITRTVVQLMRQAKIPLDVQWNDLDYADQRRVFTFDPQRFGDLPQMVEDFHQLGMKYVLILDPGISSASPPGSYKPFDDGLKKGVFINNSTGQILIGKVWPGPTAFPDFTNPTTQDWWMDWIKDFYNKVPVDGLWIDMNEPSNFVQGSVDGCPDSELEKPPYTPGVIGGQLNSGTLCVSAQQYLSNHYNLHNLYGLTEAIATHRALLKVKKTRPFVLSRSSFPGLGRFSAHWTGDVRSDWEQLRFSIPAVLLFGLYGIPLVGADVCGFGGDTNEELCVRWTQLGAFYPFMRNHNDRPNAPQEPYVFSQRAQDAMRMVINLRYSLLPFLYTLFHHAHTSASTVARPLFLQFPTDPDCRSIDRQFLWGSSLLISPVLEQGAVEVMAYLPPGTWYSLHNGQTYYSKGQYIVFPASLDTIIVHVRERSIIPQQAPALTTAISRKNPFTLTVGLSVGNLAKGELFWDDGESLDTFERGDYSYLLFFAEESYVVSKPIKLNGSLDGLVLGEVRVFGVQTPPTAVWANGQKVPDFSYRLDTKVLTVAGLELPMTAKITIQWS
experimentDescription: live larvae exposed, residual activity in lysate with 4MU-alpha-D-glucopyranoside
conditionSummary: covalent; in vivo: concentration in egg water, 5 days at 28.5 °C; assay pH 4.0; read-out: CBE / Enz. assay
quantityKind: pIC50
Lab note — pIC50 values are minus log10 of concentrations in M.

Query :: # get_value(readout= pIC50, system= GAA (zebrafish larvae) (Danio rerio, UniProt A0A8M1QKP5)) for OC1C(O)C(O)C2OC2C1O (stereo not shown) [compound 1, conduritol B epoxide]
Result :: 2.30

----------
experimentalSystem: GBA (zebrafish larvae) (Danio rerio, UniProt E7EZM1)
Construct: gene gba1; endogenous enzyme in larvae, measured in larval lysate
Sequence (E7EZM1 20-518): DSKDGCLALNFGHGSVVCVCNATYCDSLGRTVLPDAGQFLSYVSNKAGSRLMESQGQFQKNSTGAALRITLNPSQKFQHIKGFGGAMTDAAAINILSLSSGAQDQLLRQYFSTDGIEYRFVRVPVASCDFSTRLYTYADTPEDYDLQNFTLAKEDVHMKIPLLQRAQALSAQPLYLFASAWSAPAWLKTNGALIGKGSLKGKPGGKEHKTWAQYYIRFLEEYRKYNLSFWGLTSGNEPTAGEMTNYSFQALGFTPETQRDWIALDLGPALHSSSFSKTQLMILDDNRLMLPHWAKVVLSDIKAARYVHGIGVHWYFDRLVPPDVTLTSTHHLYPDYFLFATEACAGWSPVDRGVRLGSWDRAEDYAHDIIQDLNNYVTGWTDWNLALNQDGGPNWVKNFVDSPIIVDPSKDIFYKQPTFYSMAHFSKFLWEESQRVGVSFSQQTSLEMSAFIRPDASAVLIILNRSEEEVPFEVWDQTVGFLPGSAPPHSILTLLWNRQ
experimentDescription: live larvae exposed, residual activity in lysate with 4MU-glucoside
conditionSummary: covalent; in vivo: concentration in egg water, 5 days at 28.5 °C; assay pH 5.2 with AMP-DNM; read-out: CP / Enz. assay
Excerpt: live larvae exposed, residual activity in lysate with 4MU-glucoside on GBA (zebrafish larvae)
quantityKind: IC50 (nM)
Report the value in nM with no unit label.

Query :: Fill in: IC50 of OC[C@@H]1[C@@H](O)[C@H](O)[C@@H](O)[C@@H]2O[C@H]12 is ___
Result :: 130

----------
experimentalSystem: recombinant human GBA (rGBA, imiglucerase) (Homo sapiens, UniProt P04062, R534H)
Construct: gene GBA1; imiglucerase (Sanofi Genzyme), mature secreted enzyme
Sequence (P04062 40-536 R534H): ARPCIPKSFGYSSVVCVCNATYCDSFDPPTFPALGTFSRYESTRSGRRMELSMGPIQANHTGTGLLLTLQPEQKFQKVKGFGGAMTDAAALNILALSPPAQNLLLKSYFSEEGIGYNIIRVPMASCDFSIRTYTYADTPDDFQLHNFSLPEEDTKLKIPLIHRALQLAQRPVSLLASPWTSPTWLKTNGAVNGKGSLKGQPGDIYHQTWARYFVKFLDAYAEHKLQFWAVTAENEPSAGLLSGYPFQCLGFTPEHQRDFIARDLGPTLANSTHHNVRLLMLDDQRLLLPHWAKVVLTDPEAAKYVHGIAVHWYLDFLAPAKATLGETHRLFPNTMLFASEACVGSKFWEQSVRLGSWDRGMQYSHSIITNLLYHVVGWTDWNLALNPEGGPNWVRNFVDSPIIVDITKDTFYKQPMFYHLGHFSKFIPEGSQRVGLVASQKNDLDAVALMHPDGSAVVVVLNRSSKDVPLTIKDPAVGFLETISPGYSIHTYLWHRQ
experimentDescription: residual activity, fluorogenic 4MU-glucoside assay
Type: biochemical
conditionSummary: covalent; irreversible; 180 min preincubation; pH 5.2, 37 °C, 0.2% taurocholate, 0.1% Triton X-100; 3.75 mM 4MU-beta-D-glucopyranoside; read-out: CBE / Enz. assay
quantityKind: IC50 (µM)
Report the value in µM with no unit label.

Query :: Fill in: IC50 of OC1C(O)C(O)C2OC2C1O (stereo not shown) [compound 1, conduritol B epoxide] is ___
Result :: 4.28
